Each recorded value in this set is attributed to patent US5679678A.

Tested on: cyclooxygenase
PROCEDURE_TEXT: Formation of prostaglandin D2 by neutrophils (measure of cyclooxygenase activity), A23187 stimulated, RIA
Assay type: cell-based, Sprague-Dawley rats
TEST_CONDITIONS: rat peritoneal neutrophils (lambda-carageenan), 5 min preincubation at 37° C., A23187 2 μmol/l, read-out: IC50 PGD2
MEASUREMENT_TYPE: IC50 (nM)

CN1C(C(=O)Nc2cccc(-c3cc4ccccc4o3)n2)=C(O)c2sc(-c3cccs3)cc2S1(=O)=O    68
CN1C(C(=O)Nc2ccccn2)=C(O)c2sc(Cl)cc2S1(=O)=O [Compound A, reference compound]    20
CN1C(C(=O)Nc2nc(-c3ccccc3)cs2)=C(O)c2sc(-c3ccco3)cc2S1(=O)=O    17

P: CN1C(C(=O)Nc2ccccn2)=C(O)c2sc(-c3ccco3)cc2S1(=O)=O
Q: CN1C(C(=O)Nc2nc(-c3ccc(-c4ccc(F)cc4)o3)cs2)=C(O)c2sc(Cl)cc2S1(=O)=O
R: CN1C(C(=O)Nc2cccc(-c3cc4ccccc4o3)n2)=C(O)c2sc(-c3ccccc3)cc2S1(=O)=O
S: CN1C(C(=O)Nc2nc(-c3cc4ccccc4o3)cs2)=C(O)c2sc(Cl)cc2S1(=O)=O
query: // ranking: key=IC50, reverse=True Sort and list the labels as requested.
result: Q, R, S, P

I: CN1C(C(=O)Nc2nc(-c3cc4ccccc4o3)co2)=C(O)c2sc(-c3ccco3)cc2S1(=O)=O
II: CN1C(C(=O)Nc2nccs2)=C(O)c2sc(Cl)cc2S1(=O)=O
query: Endpoint returns the identifier whose IC50 is numerically larger, either I or II . Answer format: the label of the selected item.
result: I
(I: 200 nM, II: 17 nM)

a: CN1C(C(=O)Nc2ccccn2)=C(O)c2sc(-c3cccs3)cc2S1(=O)=O
b: CN1C(C(=O)Nc2nc(-c3ccccc3)cs2)=C(O)c2sc(Cl)cc2S1(=O)=O
query: Endpoint returns the identifier whose IC50 is numerically larger, either a or b . Answer format: the label of the selected item.
result: b
(b: 27 nM, a: 3.5 nM)

====

TEST_SYSTEM: 5-lipoxygenase (Rattus norvegicus)
Construct: endogenous in cells
Sequence (P12527 1-673): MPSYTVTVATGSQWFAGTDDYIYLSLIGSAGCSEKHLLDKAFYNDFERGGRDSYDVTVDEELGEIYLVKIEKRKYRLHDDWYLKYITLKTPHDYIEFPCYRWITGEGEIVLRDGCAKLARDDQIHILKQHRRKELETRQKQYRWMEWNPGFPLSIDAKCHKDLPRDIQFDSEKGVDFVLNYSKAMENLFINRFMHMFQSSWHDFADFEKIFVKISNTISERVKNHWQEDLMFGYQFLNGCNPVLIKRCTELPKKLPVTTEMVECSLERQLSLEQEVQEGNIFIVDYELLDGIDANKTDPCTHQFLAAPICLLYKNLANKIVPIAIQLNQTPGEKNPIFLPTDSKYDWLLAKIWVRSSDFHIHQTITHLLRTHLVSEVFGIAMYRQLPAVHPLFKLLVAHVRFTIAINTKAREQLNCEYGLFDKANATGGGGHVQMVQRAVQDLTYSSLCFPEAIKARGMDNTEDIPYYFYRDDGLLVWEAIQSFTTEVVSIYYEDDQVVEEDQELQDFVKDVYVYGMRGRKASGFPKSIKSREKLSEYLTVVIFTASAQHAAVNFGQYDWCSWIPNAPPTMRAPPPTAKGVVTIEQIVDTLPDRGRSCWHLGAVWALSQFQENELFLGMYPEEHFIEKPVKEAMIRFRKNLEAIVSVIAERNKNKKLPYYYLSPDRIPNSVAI
PROCEDURE_TEXT: Formation of leucotrien B4 by neutrophils (measure of 5-lipoxygenase activity), A23187 stimulated, RIA
TEST_CONDITIONS: rat peritoneal neutrophils (lambda-carageenan), 5 min preincubation at 37° C., A23187 2 μmol/l, read-out: IC50 LTB4
pIC50: −log10 of the molar value.
MEASUREMENT_TYPE: pIC50

These solved cases illustrate the format of a correct answer.
CN1C(C(=O)Nc2cccc(-c3cc4ccccc4o3)n2)=C(O)c2sc(-c3ccccc3)cc2S1(=O)=O [Compound 17]    5.89
CN1C(C(=O)Nc2nc(-c3ccccc3)cs2)=C(O)c2sc(-c3ccco3)cc2S1(=O)=O [Compound 3]    5.28
CN1C(C(=O)Nc2cccc(-c3cc4ccccc4o3)n2)=C(O)c2sc(-c3cccs3)cc2S1(=O)=O [Compound 18]    5.89
CN1C(C(=O)Nc2cccc(-c3cc4ccccc4o3)n2)=C(O)c2sc(-c3ccco3)cc2S1(=O)=O [Compound 19]    5.85
CN1C(C(=O)Nc2nc(-c3cc4ccccc4o3)cs2)=C(O)c2sc(-c3ccco3)cc2S1(=O)=O [Compound 9]    5.80
CN1C(C(=O)Nc2nc(-c3cc4ccccc4o3)co2)=C(O)c2sc(-c3ccco3)cc2S1(=O)=O [Compound 11]    5.68
CN1C(C(=O)Nc2nc(-c3ccc(-c4ccc(F)cc4)o3)cs2)=C(O)c2sc(-c3ccco3)cc2S1(=O)=O [Compound 7]    6.14
CN1C(C(=O)Nc2nc(-c3cc4ccccc4o3)cs2)=C(O)c2sc(Cl)cc2S1(=O)=O [Compound 8]    5.66

I: CN1C(C(=O)Nc2nc(-c3ccc(-c4ccc(F)cc4)o3)cs2)=C(O)c2sc(Cl)cc2S1(=O)=O [Compound 6]
II: CN1C(C(=O)Nc2nc(-c3cc4ccccc4s3)co2)=C(O)c2sc(Cl)cc2S1(=O)=O [Compound 12]
query: // select label with min value of measured pIC50 from [ I , II ] Answer format: the label of the selected item.
result: II
(II: 5.57, I: 6.24)
